System: Falciformispora senegalensis CBS197.79
experiment: growth relative to untreated control; higher = less inhibition, active = 20 or less
setup.conditions: 25 µM
Task for the reader: assign each of the following compounds its reported growth.
Give just the numeric value; % need not be written.

The value of growth measured for the compound Cc1nn(C)c(Oc2ccccc2)c1C=NOCc1ccc(C(=O)OC(C)(C)C)cc1 turned out to be 95

The value of growth measured for the compound CCCCCCO[C@@H](C)c1cccc(-c2csc(NC(=O)c3cc(Cl)c(/C=C(\C)C(=O)O)c(Cl)c3)n2)c1OC turned out to be 80

The value of growth measured for the compound C[C@@H]1[C@@H](NC(=O)c2cn3cc(Cl)ccc3n2)C[C@H]2C[C@@H]1C2(C)C turned out to be 95.5

The value of growth measured for the compound CC1(C)CCC(CO)(NC(=O)c2cc3c(F)cc(F)cc3[nH]2)CC1 turned out to be 93.1

The value of growth measured for the compound CCN1C(=O)N(CCC(C)C)C2(CCN(Cc3cc(O)cc(Cl)c3)CC2)C1=O turned out to be 91

The value of growth measured for the compound Cc1cnc2nc(NC3COc4ccc(F)cc43)nc(NC3CCC4(CCCC4)CC3)c2c1 (stereo unspecified) turned out to be 85.8

The value of growth measured for the compound FC(F)(F)c1cc(Cl)cc(Nc2nc3cnc(NC4CCC4)cc3[nH]2)c1 turned out to be 70.6

The value of growth measured for the compound COc1ccc(-c2ccc3c(-c4ccc(F)cc4)cnc(N)c3c2)cn1 turned out to be 94.3

The value of growth measured for the compound CC(=O)Nc1ccc(NC(=O)c2cc(-c3ccc(C)cc3O)n[nH]2)cc1 turned out to be 81.7

The value of growth measured for the compound Cc1ccc(-c2ccc(C3(CN)CCOCC3)cc2)cn1 turned out to be 59

The value of growth measured for the compound O=c1[nH]c2ccccc2n1CCCN1CCN(C(c2ccccc2)c2ccccc2)CC1 turned out to be 103

The value of growth measured for the compound C=CCNc1nc(NCC=C)nc(N2CCN(C(c3ccc(F)cc3)c3ccc(F)cc3)CC2)n1 turned out to be 105

The value of growth measured for the compound CCCC(CCC)C(=O)O turned out to be 112

The value of growth measured for the compound O=C(NC1(CO)CCOCC1)c1cc2ccc(C(F)(F)F)cc2[nH]1 turned out to be 89.7

The value of growth measured for the compound COc1cc2nccc(Oc3ccc(NC(=O)C4(C(=O)Nc5ccc(F)cc5)CC4)cc3)c2cc1OC turned out to be 83.6

The value of growth measured for the compound CC(C)(C)NCc1cc(Nc2ccnc3cc(Cl)ccc23)c2c(c1O)CCCC2 turned out to be 106

====

Test system: Madurella mycetomatis MM55
experiment: growth relative to untreated control; higher = less inhibition, active = 20 or less
setup.conditions: 25 µM
Respond only with the outcome that fits, drawn from YES for active, NO for inactive

Problem: Hi, do you know how Cn1c(O)nnc1Cn1ccc(C(F)(F)F)c(Oc2cc(Cl)cc(C#N)c2)c1=O came out in this test?
Result: NO

Problem: Hi, do you know how CC(CN1c2ccccc2Sc2ccccc21)N(C)C (stereo not given) came out in this test?
Result: NO

Problem: Hi, do you know how CCc1nn2c(Nc3ccncc3)cc(C)nc2c1-c1ccccc1 came out in this test?
Result: NO

Problem: Hi, do you know how COc1ccc(-n2nc(C(N)=O)c3c2C(=O)N(c2ccc(N4CCCCC4=O)cc2)CC3)cc1 came out in this test?
Result: NO

Problem: Hi, do you know how CCN(CC)C(=O)/C(C#N)=C/c1cc(O)c(O)c([N+](=O)[O-])c1 came out in this test?
Result: NO

Problem: Hi, do you know how Cc1cccnc1Nc1cn2cc(-c3ccnc(OC(C)C)n3)ccc2n1 came out in this test?
Result: NO

Problem: Hi, do you know how CN(C)CCN1CCCN(c2ccnc3ccsc23)CC1 came out in this test?
Result: NO

Problem: Hi, do you know how O=C(c1ccc(Nc2nccc(-c3ccc(C(F)(F)F)c(Cl)c3)n2)cc1)N1CC(O)C1 came out in this test?
Result: NO

Problem: Hi, do you know how Cc1ccccc1-c1noc(-c2ccccc2)n1 came out in this test?
Result: NO

Problem: Hi, do you know how CCNCc1cc(Nc2ccnc3cc(Cl)ccc23)ccc1O came out in this test?
Result: NO

Problem: Hi, do you know how CCCCN(CCCC)CCC(O)c1cc2c(Cl)cc(Cl)cc2c2cc(C(F)(F)F)ccc12 (stereo not given) came out in this test?
Result: NO

Problem: Hi, do you know how CN(C)CCCN1C(=O)c2[nH]nc(-c3ccc(Cl)cc3O)c2C1c1ccc(Cl)cc1 (stereo not given) came out in this test?
Result: NO

Problem: Hi, do you know how CCN(CC)CCNc1nc(Nc2cccc(OC)c2)c2cnn(-c3ccccc3)c2n1 came out in this test?
Result: YES

Problem: Hi, do you know how CC(=O)c1nn(-c2c(Cl)cc(C(F)(F)F)cc2Cl)c(N)c1S(C)=O (stereo not given) came out in this test?
Result: NO

Problem: Hi, do you know how C[C@H](NC(=O)c1cc2ccc(Cl)cc2n1C)c1ccccc1 came out in this test?
Result: NO

Problem: Hi, do you know how c1cc(N2CCC(CN3CCOCC3)CC2)c2sccc2n1 came out in this test?
Result: NO

Problem: Hi, do you know how CC(C)c1nc(CN(C)C(=O)N[C@H](C(=O)N[C@@H](Cc2ccccc2)C[C@H](O)[C@H](Cc2ccccc2)NC(=O)OCc2cncs2)C(C)C)cs1 came out in this test?
Result: NO

Problem: Hi, do you know how Cc1cnc2nc(NC3COc4ccccc43)nc(NC(C3CC3)C3CC3)c2c1 (stereo not given) came out in this test?
Result: YES

Problem: Hi, do you know how O[C@@H](c1cc(C(F)(F)F)nc2c(C(F)(F)F)cccc12)[C@H]1CCCCN1 came out in this test?
Result: YES

Problem: Hi, do you know how COc1cccc2c1C(=O)c1c(O)c3c(c(O)c1C2=O)C[C@@](O)(C(=O)CO)C[C@@H]3O[C@H]1C[C@H](N)[C@H](O)[C@H](C)O1 came out in this test?
Result: NO
